Entry source: ChEMBL document CHEMBL3632595

molecular target: Bifunctional epoxide hydrolase 2 (Homo sapiens); test: Inhibition of sEH (unknown origin) assessed as 6-methoxy-2-naphthaldehyde formation by fluorometry assay using 40 uM cyano-(6-methoxy-naphthalen-2-yl)-methyl ester as substrate
Sequence (P34913 whole entry): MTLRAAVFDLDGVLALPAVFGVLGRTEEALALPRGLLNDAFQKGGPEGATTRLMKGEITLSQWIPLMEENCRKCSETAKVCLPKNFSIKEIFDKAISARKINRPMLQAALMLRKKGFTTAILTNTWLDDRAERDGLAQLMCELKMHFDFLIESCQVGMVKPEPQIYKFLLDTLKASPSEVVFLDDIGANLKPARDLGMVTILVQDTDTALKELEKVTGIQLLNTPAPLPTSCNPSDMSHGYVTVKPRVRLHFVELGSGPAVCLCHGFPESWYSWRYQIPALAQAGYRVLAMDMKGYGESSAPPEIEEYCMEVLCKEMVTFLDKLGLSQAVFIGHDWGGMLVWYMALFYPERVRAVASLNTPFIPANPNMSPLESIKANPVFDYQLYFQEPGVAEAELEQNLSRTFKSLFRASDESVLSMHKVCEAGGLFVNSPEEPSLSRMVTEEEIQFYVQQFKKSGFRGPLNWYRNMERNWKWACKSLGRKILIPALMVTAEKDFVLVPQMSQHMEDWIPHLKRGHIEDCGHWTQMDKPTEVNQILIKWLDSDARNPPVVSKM
quantity_name: pIC50
Give bare numbers, as −log10 of the molar value.

Solved cases (2 shown):
| smiles_data | target | quantity_name | test_value |
| --- | --- | --- | --- |
| COc1cc2c(c(OC)c1OC)C(=O)c1c(cc(C)c(O)c1OC)C2=O | Bifunctional epoxide hydrolase 2 (Homo sapiens) | pIC50 | 4.58 |
| COc1c(O[C@@H]2O[C@H](CO)[C@@H](O)[C@H](O)[C@H]2O)cc2c(c1O)C(=O)c1c(cc(C)c(O)c1OC)C2=O | Bifunctional epoxide hydrolase 2 (Homo sapiens) | pIC50 | 4.48 |

Here is another molecule to look at.
Prompt line: Would you mind telling me what pIC50 value was observed for `Cc1cc(O)c2c(c1)C(=O)c1cc(O)cc(O)c1C2=O` ?
Response line: 4.44
